The molecules listed here are annotated with their Activity.
# Test system: HepG2
# experiment.description: Induction of apoptosis in human HepG2 cells assessed as early apoptosis by annexinV/propidium iodide staining based by flow cytometry (reference value: 0.78+/- 0.09%)
# Assay type: functional
readout.kind: Activity (%)

> print(dat)
                                   molecule  endpoint.value
1  O=C(Nc1ccc([N+](=O)[O-])cc1)C(c1ccc([N+](=O)[O-])cc1)N(C(=O)c1ccc(C(F)(F)F)cc1)c1ccccc1 (centres undefined)           26.46
2  O=C(Nc1ccc([N+](=O)[O-])cc1)C(c1ccccc1)N(C(=O)c1ccccc1I)c1ccccc1 (centres undefined)           14.02
3  COc1cccc2c1C(=O)c1c(O)c3c(c(O)c1C2=O)C[C@@](O)(C(=O)CO)C[C@@H]3O[C@H]1C[C@H](N)[C@H](O)[C@H](C)O1           10.59
4  O=C(Nc1ccc([N+](=O)[O-])cc1)C(c1ccccc1)N(Cc1ccccc1)C(=O)Cc1ccccc1 (centres undefined)           19.08

----------
# experiment.description: in vitro
# measurement.context: human, WI38 cells and HepG2 cells
# Description: Selectivity index, ratio of IC50 for human WI38 cells to IC50 for human HepG2 cells
readout.kind: selectivity ratio

> print(dat)
                                    compound  endpoint.value
 1  Cc1ccc(N(C(=O)c2ccc(C(F)(F)F)cc2)C(C(=O)Nc2ccc([N+](=O)[O-])cc2)c2ccccc2)cc1 (stereo unspecified)            3.04
 2  Cc1ccc(N(C(=O)c2ccccc2[N+](=O)[O-])C(C(=O)Nc2ccc([N+](=O)[O-])cc2)c2ccccc2)cc1 (stereo unspecified)            3.25
 3  Cc1ccc(N(C(=O)c2ccc([N+](=O)[O-])cc2)C(C(=O)Nc2ccc([N+](=O)[O-])cc2)c2ccccc2)cc1 (stereo unspecified)            2.44
 4  O=C(Nc1ccc([N+](=O)[O-])cc1)C(c1ccc([N+](=O)[O-])cc1)N(C(=O)c1ccccc1[N+](=O)[O-])c1ccccc1 (stereo unspecified)            1.32
 5  O=C(Nc1ccc([N+](=O)[O-])cc1)C(c1ccccc1)N(C(=O)c1ccc([N+](=O)[O-])cc1)c1ccccc1 (stereo unspecified)            56.7
 6  O=C(Nc1ccc([N+](=O)[O-])cc1)C(c1ccccc1)N(C(=O)C(Cl)(Cl)Cl)c1ccccc1 (stereo unspecified)             148
 7  O=C(Nc1ccc([N+](=O)[O-])cc1)C(c1ccccc1[N+](=O)[O-])N(C(=O)C(F)(F)F)c1ccccc1 (stereo unspecified)            5.06
 8  NCC(=O)N(c1ccccc1)C(C(=O)Nc1ccc([N+](=O)[O-])cc1)c1ccccc1 (stereo unspecified)            1.44
 9  O=C(Nc1ccc([N+](=O)[O-])cc1)C(c1ccccc1)N(C(=O)Cc1ccccc1)c1ccccc1 (stereo unspecified)              46
10  O=C(Nc1ccc([N+](=O)[O-])cc1)C(c1ccccc1)N(C(=O)C(F)(F)F)c1ccccc1 (stereo unspecified)            70.3
11  O=C(Nc1ccc([N+](=O)[O-])cc1)C(c1ccccc1)N(C(=O)/C=C/c1ccccc1)c1ccccc1 (stereo unspecified)            1.49
12  O=C(Nc1ccc([N+](=O)[O-])cc1)C(c1ccccc1)N(C(=O)c1ccccc1[N+](=O)[O-])c1cccc(Br)c1 (stereo unspecified)            1.44
13  O=C(Nc1ccc([N+](=O)[O-])cc1)C(c1ccccc1)N(C(=O)c1ccccc1[N+](=O)[O-])c1ccc(I)cc1 (stereo unspecified)            1.77
14  O=C(Nc1ccc([N+](=O)[O-])cc1)C(c1ccccc1[N+](=O)[O-])N(C(=O)c1ccccc1[N+](=O)[O-])c1ccccc1 (stereo unspecified)           0.828
15  Cc1ccc(N(C(=O)c2ccc(Cl)cc2)C(C(=O)Nc2ccc([N+](=O)[O-])cc2)c2ccccc2)cc1 (stereo unspecified)           0.842
16  O=C(Nc1ccc([N+](=O)[O-])cc1)C(c1ccccc1)N(Cc1ccccc1)C(=O)Cc1ccccc1 (stereo unspecified)            55.1

----------
# Tested on: MCF7
# experiment.description: cells
# measurement.context: Homo sapiens
# Description: Anticancer activity against human MCF7 cells assessed as reduction in cell viability by MTT assay
Mark 1.0 only for IC50 values smaller than 30 nM; exact matches and larger values are 0.0.

compound	assigned.category
O=C(Nc1ccc([N+](=O)[O-])cc1)C(c1ccccc1)N(C(=O)c1ccccc1[N+](=O)[O-])c1cccc(Br)c1 (configuration not stated)	0.0
O=C(Nc1ccc([N+](=O)[O-])cc1)C(c1ccc([N+](=O)[O-])cc1)N(C(=O)c1ccc([N+](=O)[O-])cc1)c1ccccc1 (configuration not stated)	0.0
O=C(Nc1ccc([N+](=O)[O-])cc1)C(c1ccccc1)N(C(=O)C(Cl)(Cl)Cl)c1ccccc1 (configuration not stated)	1.0
Cc1ccc(N(C(=O)c2ccc(C(F)(F)F)cc2)C(C(=O)Nc2ccc([N+](=O)[O-])cc2)c2ccccc2)cc1 (configuration not stated)	1.0
O=C(Nc1ccc([N+](=O)[O-])cc1)C(c1ccccc1)N(C(=O)Cc1ccccc1)c1ccccc1 (configuration not stated)	1.0
O=C(Nc1ccc([N+](=O)[O-])cc1)C(c1ccccc1)N(C(=O)c1ccc([N+](=O)[O-])cc1)c1ccccc1 (configuration not stated)	1.0
Cc1ccc(N(C(=O)c2ccc([N+](=O)[O-])cc2)C(C(=O)Nc2ccc([N+](=O)[O-])cc2)c2ccccc2)cc1 (configuration not stated)	0.0
O=C(Nc1ccc([N+](=O)[O-])cc1)C(c1ccccc1)N(C(=O)CCC(=O)N(c1ccccc1)C(C(=O)Nc1ccc([N+](=O)[O-])cc1)c1ccccc1)c1ccccc1 (configuration not stated)	0.0
O=C(Nc1ccc([N+](=O)[O-])cc1)C(c1ccccc1[N+](=O)[O-])N(C(=O)C(F)(F)F)c1ccccc1 (configuration not stated)	1.0
O=C(Nc1ccc([N+](=O)[O-])cc1)C(c1ccccc1)N(C(=O)c1ccccc1[N+](=O)[O-])c1ccccc1 (configuration not stated)	0.0
O=C(Nc1ccc([N+](=O)[O-])cc1)C(c1ccccc1)N(C(=O)c1ccccc1[N+](=O)[O-])c1ccc(I)cc1 (configuration not stated)	0.0
O=C(Nc1ccc([N+](=O)[O-])cc1)C(c1ccc([N+](=O)[O-])cc1)N(C(=O)c1ccc(C(F)(F)F)cc1)c1ccccc1 (configuration not stated)	1.0
O=C(Nc1ccc([N+](=O)[O-])cc1)C(c1ccccc1)N(C(=O)c1ccccc1I)c1ccccc1 (configuration not stated)	1.0
NCC(=O)N(c1ccccc1)C(C(=O)Nc1ccc([N+](=O)[O-])cc1)c1ccccc1 (configuration not stated)	0.0
O=C(Nc1ccc([N+](=O)[O-])cc1)C(c1ccccc1)N(C(=O)c1ccc(C(F)(F)F)cc1)c1ccccc1 (configuration not stated)	1.0
CC(=O)N(c1ccccc1)C(C(=O)Nc1ccc([N+](=O)[O-])cc1)c1ccccc1 (configuration not stated)	0.0
CC(C)(C)OC(=O)NCC(=O)N(c1ccccc1)C(C(=O)Nc1ccc([N+](=O)[O-])cc1)c1ccccc1 (configuration not stated)	1.0
O=C(Nc1ccc([N+](=O)[O-])cc1)C(c1ccccc1)N(C(=O)C(F)(F)F)c1ccccc1 (configuration not stated)	1.0
O=C(Nc1ccc([N+](=O)[O-])cc1)C(c1ccccc1[N+](=O)[O-])N(C(=O)c1ccccc1[N+](=O)[O-])c1ccccc1 (configuration not stated)	0.0
O=CN(c1ccccc1)C(C(=O)Nc1ccc([N+](=O)[O-])cc1)c1ccccc1 (configuration not stated)	0.0
O=C(Nc1ccc([N+](=O)[O-])cc1)C(c1ccccc1)N(C(=O)/C=C/c1ccccc1)c1ccccc1 (configuration not stated)	1.0
O=C(Nc1ccc([N+](=O)[O-])cc1)C(c1ccc([N+](=O)[O-])cc1)N(C(=O)c1ccccc1[N+](=O)[O-])c1ccccc1 (configuration not stated)	0.0
O=C(Nc1ccc([N+](=O)[O-])cc1)C(c1ccc(Br)cc1)N(C(=O)c1ccccc1[N+](=O)[O-])c1ccccc1 (configuration not stated)	0.0
Cc1ccc(N(C(=O)c2ccc(Br)cc2)C(C(=O)Nc2ccc([N+](=O)[O-])cc2)c2ccccc2)cc1 (configuration not stated)	0.0
Cc1ccc(N(C(=O)c2ccc(Cl)cc2)C(C(=O)Nc2ccc([N+](=O)[O-])cc2)c2ccccc2)cc1 (configuration not stated)	0.0
Cc1ccc(N(C(=O)c2ccccc2[N+](=O)[O-])C(C(=O)Nc2ccc([N+](=O)[O-])cc2)c2ccccc2)cc1 (configuration not stated)	0.0
O=C(Nc1ccc([N+](=O)[O-])cc1)C(c1ccccc1)N(Cc1ccccc1)C(=O)Cc1ccccc1 (configuration not stated)	1.0

----------
# Test system: NFS-60
# experiment.description: Induction of cell morphological changes in […] cells assessed as loss in cell shape by microscopic analysis
# Type: functional, cell-based
# measurement.context: Mus musculus
Activity calls are given as the source filed them. The calls are words filed in the database; no cut-off is given here.
readout.kind: Activity

> print(dat)
                                   compound  endpoint.value
1  O=C(Nc1ccc([N+](=O)[O-])cc1)C(c1ccccc1)N(C(=O)c1ccccc1I)c1ccccc1 (centres undefined)          Active
2  O=C(Nc1ccc([N+](=O)[O-])cc1)C(c1ccc([N+](=O)[O-])cc1)N(C(=O)c1ccc(C(F)(F)F)cc1)c1ccccc1 (centres undefined)          Active
3  O=C(Nc1ccc([N+](=O)[O-])cc1)C(c1ccccc1)N(Cc1ccccc1)C(=O)Cc1ccccc1 (centres undefined)          Active
4  COc1cccc2c1C(=O)c1c(O)c3c(c(O)c1C2=O)C[C@@](O)(C(=O)CO)C[C@@H]3O[C@H]1C[C@H](N)[C@H](O)[C@H](C)O1          Active
